Reported Kd values for the following molecules.
# TEST SYSTEM: UniProt P01116
# Sequence (P01116 1-188 isoform P01116-2): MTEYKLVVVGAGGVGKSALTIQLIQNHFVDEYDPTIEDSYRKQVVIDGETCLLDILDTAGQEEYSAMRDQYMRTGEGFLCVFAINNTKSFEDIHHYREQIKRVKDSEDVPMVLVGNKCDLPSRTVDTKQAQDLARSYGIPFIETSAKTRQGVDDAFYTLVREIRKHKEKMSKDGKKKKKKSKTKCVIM
# ASSAY DETAILS: Binding to KRAS by surface plasmon resonance (SPR), dissociation constant KD
# ASSAY CONTEXT: 1:1 binding model
A number alone suffices; assume nM.

Example results:
[
  {
    "MOLECULE": "CCO[C@@H]1C[C@H]2C(=O)NC3(CC(C)(C)C3)C(=O)N(C)[C@@H](C3CCCC3)C(=O)N(C)[C@H](C(=O)N(C)C)CC(=O)N(C)[C@@H]([C@H](C)OC)C(=O)N[C@@H]([C@@H](C)CC)C(=O)N3CCC[C@H]3C(=O)N(C)[C@H]3C/C=C\\CCN(C3=O)[C@@H](Cc3ccc(C(F)(F)F)cc3)C(=O)N(C)CC(=O)N[C@@H](CCc3ccc(C(F)(F)F)c(Cl)c3)C(=O)N2C1 [PP3183]",
    "TEST READOUT": "Kd",
    "NUMERIC READOUT": 1.2
  },
  {
    "MOLECULE": "CCCOC[C@H]1C(=O)N[C@@H]([C@@H](C)CC)C(=O)N(C)CC(=O)N(C)[C@H]2C/C=C\\CCN(C2=O)[C@@H](Cc2ccc(C)cc2)C(=O)N(C)CC(=O)N[C@@H](CCc2cc(F)c(C(F)(F)F)c(F)c2)C(=O)N2C[C@@H](C)C[C@H]2C(=O)NC2(CC(C)(C)C2)C(=O)N(C)[C@@H](C2CCCC2)C(=O)N(C)[C@H](C(=O)N(C)CC)CC(=O)N1C [PP2471]",
    "TEST READOUT": "Kd",
    "NUMERIC READOUT": 0.16
  },
  {
    "MOLECULE": "CCO[C@@H]1C[C@H]2C(=O)NC3(CC(C)(C)C3)C(=O)N(C)[C@@H](C3CCCC3)C(=O)N(C)[C@H](C(=O)N(C)CC)CC(=O)N(C)[C@@H]([C@H](C)OC)C(=O)N[C@@H]([C@@H](C)CC)C(=O)N(C3CC3)CC(=O)N(C)[C@H]3C/C=C\\CCN(C3=O)[C@@H](Cc3ccc(C)cc3)C(=O)N(C)CC(=O)N[C@@H](CCc3ccc(C(F)(F)F)c(Cl)c3)C(=O)N2C1 [PP3159]",
    "TEST READOUT": "Kd",
    "NUMERIC READOUT": 0.6
  },
  {
    "MOLECULE": "CCO[C@@H]1C[C@H]2C(=O)NC3(CC(C)(C)C3)C(=O)N(C)[C@@H](C3CCCC3)C(=O)N(C)[C@H](C(=O)N(C)C)CC(=O)N(C)[C@@H]([C@@H](C)OC)C(=O)N[C@@H]([C@@H](C)CC)C(=O)N3CCC[C@H]3C(=O)N(C)[C@H]3C/C=C\\CCN(C3=O)[C@@H](Cc3ccc(C)cc3)C(=O)N(C)CC(=O)N[C@@H](CCc3cc(F)c(C(F)(F)F)c(F)c3)C(=O)N2C1 [PP3214]",
    "TEST READOUT": "Kd",
    "NUMERIC READOUT": 0.48
  },
  {
    "MOLECULE": "CCC[C@H]1C(=O)N[C@@H](C2CCCCC2)C(=O)N(C)CC(=O)N(C)[C@H]2C/C=C\\CCN(C2=O)[C@@H](Cc2ccc(C)cc2)C(=O)N(C)CC(=O)N[C@@H](CCc2ccc(C(F)(F)F)c(Cl)c2)C(=O)N2C[C@H](OCC)C[C@H]2C(=O)NC2(CC(C)(C)C2)C(=O)N(C)[C@@H](C2CCCC2)C(=O)N(C)[C@H](C(=O)N(C)C)CC(=O)N1C [PP2998]",
    "TEST READOUT": "Kd",
    "NUMERIC READOUT": 0.43
  }
]

Report Kd from UniProt P01116 testing of CCC(CC)[C@H]1C(=O)N(C)[C@H](C(=O)N(C)C)CC(=O)N(C)[C@@H](COC)C(=O)N[C@@H]([C@@H](C)CC)C(=O)N(C)CC(=O)N(C)[C@H]2C/C=C\CCN(C2=O)[C@@H](CC2CCC(F)(F)CC2)C(=O)N(C)CC(=O)N[C@@H](CCc2ccc(C(F)(F)F)c(Cl)c2)C(=O)N2C[C@@H](C)C[C@H]2C(=O)NC2(CC(C)(C)C2)C(=O)N1C [PP2454]
1.2
